Each entry below carries its recorded IC50.
Measured target: PI3Kγ (Homo sapiens (Human))
Sequence (P48736 whole entry, canonical isoform): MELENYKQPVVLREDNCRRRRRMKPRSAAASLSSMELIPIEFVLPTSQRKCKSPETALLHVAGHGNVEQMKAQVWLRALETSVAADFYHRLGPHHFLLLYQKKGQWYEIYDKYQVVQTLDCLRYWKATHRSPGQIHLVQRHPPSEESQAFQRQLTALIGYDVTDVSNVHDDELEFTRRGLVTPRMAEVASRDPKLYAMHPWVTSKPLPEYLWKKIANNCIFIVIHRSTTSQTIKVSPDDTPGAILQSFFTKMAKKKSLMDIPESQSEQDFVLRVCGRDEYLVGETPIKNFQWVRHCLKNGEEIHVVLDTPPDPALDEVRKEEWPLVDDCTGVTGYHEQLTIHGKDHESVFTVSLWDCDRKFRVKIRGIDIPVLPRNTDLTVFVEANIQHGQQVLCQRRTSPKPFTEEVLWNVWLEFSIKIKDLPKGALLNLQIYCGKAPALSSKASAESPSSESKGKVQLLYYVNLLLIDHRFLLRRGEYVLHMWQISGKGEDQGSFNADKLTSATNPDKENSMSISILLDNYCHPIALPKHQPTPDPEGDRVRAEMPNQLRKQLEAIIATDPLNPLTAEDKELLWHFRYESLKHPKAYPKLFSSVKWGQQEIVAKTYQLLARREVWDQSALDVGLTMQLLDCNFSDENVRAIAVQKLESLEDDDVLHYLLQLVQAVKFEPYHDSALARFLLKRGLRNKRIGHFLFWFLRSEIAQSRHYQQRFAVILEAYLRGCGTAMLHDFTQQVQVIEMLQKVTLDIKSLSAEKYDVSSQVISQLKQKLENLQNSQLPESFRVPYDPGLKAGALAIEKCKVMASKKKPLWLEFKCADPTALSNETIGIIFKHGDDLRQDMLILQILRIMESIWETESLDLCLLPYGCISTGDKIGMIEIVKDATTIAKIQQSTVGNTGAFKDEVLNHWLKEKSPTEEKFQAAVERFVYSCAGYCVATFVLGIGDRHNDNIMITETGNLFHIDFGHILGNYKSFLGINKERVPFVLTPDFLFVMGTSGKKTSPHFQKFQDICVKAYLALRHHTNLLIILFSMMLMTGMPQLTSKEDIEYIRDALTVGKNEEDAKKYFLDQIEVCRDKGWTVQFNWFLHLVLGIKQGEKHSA
Sequence (Q8WYR1 whole entry partner, canonical isoform): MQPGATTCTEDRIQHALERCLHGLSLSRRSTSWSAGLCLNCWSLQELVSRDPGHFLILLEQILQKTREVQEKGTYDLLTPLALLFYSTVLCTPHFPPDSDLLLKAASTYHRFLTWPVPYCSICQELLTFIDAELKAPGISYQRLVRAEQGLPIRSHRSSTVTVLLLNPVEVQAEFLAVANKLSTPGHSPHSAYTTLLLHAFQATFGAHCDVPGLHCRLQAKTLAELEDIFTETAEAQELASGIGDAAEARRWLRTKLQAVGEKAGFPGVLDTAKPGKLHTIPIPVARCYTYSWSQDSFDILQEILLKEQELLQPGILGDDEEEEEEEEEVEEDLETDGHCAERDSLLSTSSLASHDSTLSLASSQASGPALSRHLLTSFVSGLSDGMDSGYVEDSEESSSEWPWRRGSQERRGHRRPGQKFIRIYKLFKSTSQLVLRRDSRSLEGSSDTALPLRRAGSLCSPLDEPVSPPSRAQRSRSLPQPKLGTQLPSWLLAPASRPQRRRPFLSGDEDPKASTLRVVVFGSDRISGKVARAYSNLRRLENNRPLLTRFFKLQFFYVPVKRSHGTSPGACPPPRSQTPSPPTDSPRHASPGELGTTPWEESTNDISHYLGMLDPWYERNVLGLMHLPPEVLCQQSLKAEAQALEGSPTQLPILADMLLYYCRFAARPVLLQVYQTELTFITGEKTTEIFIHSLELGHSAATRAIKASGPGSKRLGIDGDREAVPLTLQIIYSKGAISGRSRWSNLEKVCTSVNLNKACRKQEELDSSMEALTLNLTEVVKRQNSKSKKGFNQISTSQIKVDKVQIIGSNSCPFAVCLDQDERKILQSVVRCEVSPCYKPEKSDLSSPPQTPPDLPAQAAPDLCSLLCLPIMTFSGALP
Procedure details: Enzymatic activity of PI3K isoforms, TR-FRET assay (PIP3 formation)
Type: biochemical
Assay conditions: bound given in nM

> print(dat)
                                   compound               measured.target  meas.value
1  C[C@H](Nc1ncnc(N)c1C#Cc1ccc2nc(N)sc2c1)c1nc2cccc(Cl)c2c(=O)n1-c1ccccc1 [Compound 46a]  PI3Kγ (Homo sapiens (Human))    < 100 nM
2  C[C@H](Nc1ncnc(N)c1C#Cc1ccccc1)c1nc2cccc(Cl)c2c(=O)n1-c1ccccc1 [Compound 51a]  PI3Kγ (Homo sapiens (Human))    < 100 nM
3  C[C@H](Nc1ncnc(N)c1C#Cc1cn[nH]c1)c1nc2cccc(Cl)c2c(=O)n1-c1ccccc1 [Compound 49a]  PI3Kγ (Homo sapiens (Human))    < 100 nM
4  C[C@H](Nc1ncnc(N)c1C#Cc1ccc(C(F)(F)F)cn1)c1nc2cccc(Cl)c2c(=O)n1-c1ccccc1 [Compound 132a]  PI3Kγ (Homo sapiens (Human))    < 100 nM
5  C[C@H](Nc1ncnc(N)c1C#Cc1cnc(N)nc1)c1nc2cccc(Cl)c2c(=O)n1-c1ccccc1 [Compound 33a]  PI3Kγ (Homo sapiens (Human))    < 100 nM
6  Cc1ccc(C#Cc2c(N)ncnc2N[C@@H](C)c2nc3cccc(Cl)c3c(=O)n2-c2ccccc2)nc1 [Compound 133a]  PI3Kγ (Homo sapiens (Human))    < 100 nM

Task: I'd like to know its IC50. The compound in question is C[C@H](Nc1ncnc(N)c1C#Cc1cc(CO)ccn1)c1nc2cccc(Cl)c2c(=O)n1-c1ccccc1 [Compound 154a]
Output: < 100 nM

* * *

Measured target: PI3Kβ (Homo sapiens (Human), UniProt P42338)
Sequence (P42338 whole entry, one chain of several, canonical isoform): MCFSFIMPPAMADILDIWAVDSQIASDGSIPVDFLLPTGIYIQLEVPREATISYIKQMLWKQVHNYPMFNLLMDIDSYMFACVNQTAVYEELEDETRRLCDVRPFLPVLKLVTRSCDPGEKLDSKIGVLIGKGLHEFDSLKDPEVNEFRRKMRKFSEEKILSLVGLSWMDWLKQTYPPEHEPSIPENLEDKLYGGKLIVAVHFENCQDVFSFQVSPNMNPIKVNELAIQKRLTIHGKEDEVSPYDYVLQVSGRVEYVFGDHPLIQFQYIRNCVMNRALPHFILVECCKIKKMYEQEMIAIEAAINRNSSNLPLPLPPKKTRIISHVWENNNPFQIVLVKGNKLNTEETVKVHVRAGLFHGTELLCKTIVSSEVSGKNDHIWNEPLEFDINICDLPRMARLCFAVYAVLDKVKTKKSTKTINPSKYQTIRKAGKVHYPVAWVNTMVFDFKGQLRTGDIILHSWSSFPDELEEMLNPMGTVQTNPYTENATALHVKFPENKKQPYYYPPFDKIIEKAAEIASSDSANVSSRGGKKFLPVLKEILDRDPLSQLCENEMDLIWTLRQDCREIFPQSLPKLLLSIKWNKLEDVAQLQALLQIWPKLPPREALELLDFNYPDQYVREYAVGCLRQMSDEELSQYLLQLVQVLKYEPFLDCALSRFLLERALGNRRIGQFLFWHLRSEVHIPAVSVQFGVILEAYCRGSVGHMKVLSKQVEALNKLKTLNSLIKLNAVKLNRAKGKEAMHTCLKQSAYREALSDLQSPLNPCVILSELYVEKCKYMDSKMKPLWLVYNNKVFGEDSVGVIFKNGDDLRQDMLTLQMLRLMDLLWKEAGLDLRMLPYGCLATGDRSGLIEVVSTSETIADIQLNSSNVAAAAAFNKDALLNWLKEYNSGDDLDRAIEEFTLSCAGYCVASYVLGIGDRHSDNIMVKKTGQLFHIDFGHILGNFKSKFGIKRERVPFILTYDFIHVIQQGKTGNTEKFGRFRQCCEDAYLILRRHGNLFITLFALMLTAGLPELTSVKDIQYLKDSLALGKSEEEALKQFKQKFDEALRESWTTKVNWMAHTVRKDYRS
Procedure details: Enzymatic activity of PI3K isoforms, TR-FRET assay (PIP3 formation)
Type: biochemical
Assay conditions: bound given in uM
Method: Enzymatic activity of the class I PI3K isoforms was measured using a time-resolved fluorescence resonance energy transfer (TR-FRET) assay that monitors formation of the product 3,4,5-inositol triphosphate molecule (PIP3), as it competes with fluorescently labeled PIP3 for binding to the GRP-1 pleckstrin homology domain protein. […]
Each entry below carries its recorded IC50.

> print(dat)
                                   compound  meas.value
1  C[C@H](Nc1ncnc(N)c1C#Cc1ccc(F)cn1)c1nc2cccc(Cl)c2c(=O)n1-c1cccc(CNS(C)(=O)=O)c1 [Compound 130a]      > 1 µM

Task: I'd like to know its IC50. The compound in question is C[C@H](Nc1ncnc(N)c1C#Cc1cnccn1)c1nc2cccc(C(F)F)c2c(=O)n1-c1cccc(C#N)c1 [Compound 71a]
Output: > 1 µM

Task: Thanks! And CC(C)CS(=O)(=O)NCc1cccc(-n2c([C@H](C)Nc3ncnc(N)c3C#Cc3ccc(F)cn3)nc3cccc(Cl)c3c2=O)c1 [Compound 131a] ?
Output: > 1 µM

* * *

Each entry below carries its recorded IC50.
Measured target: PI3Kγ (Homo sapiens (Human))
Procedure details: Enzymatic activity of PI3K isoforms, TR-FRET assay (PIP3 formation)
Type: biochemical
Assay conditions: bound given in uM

> print(dat)
                                   compound  meas.value
1  C[C@H](Nc1ncnc(N)c1C#Cc1ccc(F)cn1)c1nc2cccc(Cl)c2c(=O)n1N1CCNCC1 [Compound 127a]      > 1 µM
2  C[C@H](Nc1ncnc(N)c1C#CC(C)(C)O)c1nc2cccc(Cl)c2c(=O)n1-c1cc(F)cc(F)c1 [Compound 28a]      > 1 µM
3  C[C@H](Nc1ncnc(N)c1C#Cc1cnccn1)c1nc2cccc(C(F)F)c2c(=O)n1-c1cccc(C#N)c1 [Compound 71a]      > 1 µM

# evaluate next
Task: I'd like to know its IC50. The compound in question is `C[C@H](Nc1ncnc(N)c1C#Cc1ccc(F)cn1)c1nc2c(Cl)cccc2c(=O)n1-c1ccccc1`
Output: > 1 µM

* * *

Each entry below carries its recorded IC50.
Measured target: UniProt:O00329
Sequence (O00329 whole entry, canonical isoform): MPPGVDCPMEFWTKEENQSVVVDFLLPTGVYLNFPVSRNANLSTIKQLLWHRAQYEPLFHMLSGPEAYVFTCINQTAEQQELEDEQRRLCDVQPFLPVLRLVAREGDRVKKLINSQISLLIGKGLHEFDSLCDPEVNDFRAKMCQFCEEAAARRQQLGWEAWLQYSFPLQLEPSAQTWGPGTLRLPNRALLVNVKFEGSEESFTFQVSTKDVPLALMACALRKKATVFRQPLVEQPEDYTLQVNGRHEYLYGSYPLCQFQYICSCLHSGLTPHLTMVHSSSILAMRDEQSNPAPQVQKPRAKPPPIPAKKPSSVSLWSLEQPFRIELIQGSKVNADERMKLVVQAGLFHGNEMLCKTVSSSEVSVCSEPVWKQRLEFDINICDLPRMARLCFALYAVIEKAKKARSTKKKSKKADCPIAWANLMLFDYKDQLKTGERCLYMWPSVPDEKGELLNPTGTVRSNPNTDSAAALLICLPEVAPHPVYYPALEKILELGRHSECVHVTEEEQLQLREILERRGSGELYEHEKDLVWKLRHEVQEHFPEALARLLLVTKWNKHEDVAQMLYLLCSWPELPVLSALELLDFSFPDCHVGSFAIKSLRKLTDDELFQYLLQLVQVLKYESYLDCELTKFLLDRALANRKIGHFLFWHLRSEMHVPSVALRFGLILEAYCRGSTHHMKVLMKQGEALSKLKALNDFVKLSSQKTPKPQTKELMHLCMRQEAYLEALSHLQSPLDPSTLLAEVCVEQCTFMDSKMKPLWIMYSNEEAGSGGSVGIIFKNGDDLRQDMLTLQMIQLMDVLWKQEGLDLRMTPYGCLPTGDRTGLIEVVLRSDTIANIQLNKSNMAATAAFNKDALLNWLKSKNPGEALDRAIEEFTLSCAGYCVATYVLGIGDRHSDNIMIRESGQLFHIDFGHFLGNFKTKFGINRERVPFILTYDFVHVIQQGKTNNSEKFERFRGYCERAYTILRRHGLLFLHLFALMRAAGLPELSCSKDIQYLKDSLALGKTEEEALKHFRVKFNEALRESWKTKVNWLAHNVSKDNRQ
Sequence (P27986 whole entry partner, canonical isoform): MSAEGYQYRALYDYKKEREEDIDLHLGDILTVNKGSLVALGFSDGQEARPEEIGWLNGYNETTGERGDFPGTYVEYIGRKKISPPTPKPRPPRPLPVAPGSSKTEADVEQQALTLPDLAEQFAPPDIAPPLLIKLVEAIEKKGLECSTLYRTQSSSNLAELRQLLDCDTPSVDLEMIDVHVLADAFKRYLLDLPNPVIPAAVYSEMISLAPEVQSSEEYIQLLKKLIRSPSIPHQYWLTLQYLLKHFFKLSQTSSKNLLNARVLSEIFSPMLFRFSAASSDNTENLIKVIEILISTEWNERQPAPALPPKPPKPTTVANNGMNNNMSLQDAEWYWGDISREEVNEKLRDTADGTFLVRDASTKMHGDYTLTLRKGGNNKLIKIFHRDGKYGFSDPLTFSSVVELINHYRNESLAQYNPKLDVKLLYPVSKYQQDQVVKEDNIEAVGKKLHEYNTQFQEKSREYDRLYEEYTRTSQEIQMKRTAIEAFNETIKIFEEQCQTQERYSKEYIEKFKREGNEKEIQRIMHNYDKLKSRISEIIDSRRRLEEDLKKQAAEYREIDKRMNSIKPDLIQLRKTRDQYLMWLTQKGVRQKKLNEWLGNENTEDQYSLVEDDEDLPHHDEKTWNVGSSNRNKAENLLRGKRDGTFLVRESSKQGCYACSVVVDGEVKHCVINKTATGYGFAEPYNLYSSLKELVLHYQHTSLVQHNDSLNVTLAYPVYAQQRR
Procedure details: Enzymatic activity of PI3K isoforms, TR-FRET assay (PIP3 formation)
Type: biochemical
Assay conditions: bound given in nM
Description: Enzymatic activity of the class I PI3K isoforms was measured using a time-resolved fluorescence resonance energy transfer (TR-FRET) assay that monitors formation of the product 3,4,5-inositol triphosphate molecule (PIP3), as it competes with fluorescently labeled PIP3 for binding to the GRP-1 pleckstrin homology domain protein. […]

> print(dat)
                                   compound  observation.type  meas.value
1  CC[C@H](Nc1ncnc(N)c1C#Cc1cnccn1)c1nc2cccc(C(F)F)c2c(=O)n1-c1cc(F)cc(F)c1 [Compound 74a]              IC50    < 100 nM
2  C[C@H](Nc1ncnc(N)c1C#Cc1cccc(N)n1)c1nc2cccc(Cl)c2c(=O)n1-c1cc(F)cc(F)c1 [Compound 15a]              IC50    < 100 nM
3  C[C@H](Nc1ncnc(N)c1C#Cc1cnc(N)nc1)c1nc2cccc(Cl)c2c(=O)n1-c1ccccc1 [Compound 33a]              IC50    < 100 nM
4  Cc1ccc(C#Cc2c(N)ncnc2N[C@@H](C)c2nc3cccc(Cl)c3c(=O)n2-c2cc(F)cc(F)c2)nc1 [Compound 164a]              IC50    < 100 nM

Task: I'd like to know its IC50. The compound in question is Cc1ccc(C#Cc2c(N)ncnc2N[C@@H](C)c2nc3cccc(Cl)c3c(=O)n2-c2ccccc2)nc1 [Compound 133a]
Output: < 100 nM
